- targetOfAssay: Prostaglandin G/H synthase 2 (Homo sapiens) (UniProt P35354)
- Sequence (whole entry): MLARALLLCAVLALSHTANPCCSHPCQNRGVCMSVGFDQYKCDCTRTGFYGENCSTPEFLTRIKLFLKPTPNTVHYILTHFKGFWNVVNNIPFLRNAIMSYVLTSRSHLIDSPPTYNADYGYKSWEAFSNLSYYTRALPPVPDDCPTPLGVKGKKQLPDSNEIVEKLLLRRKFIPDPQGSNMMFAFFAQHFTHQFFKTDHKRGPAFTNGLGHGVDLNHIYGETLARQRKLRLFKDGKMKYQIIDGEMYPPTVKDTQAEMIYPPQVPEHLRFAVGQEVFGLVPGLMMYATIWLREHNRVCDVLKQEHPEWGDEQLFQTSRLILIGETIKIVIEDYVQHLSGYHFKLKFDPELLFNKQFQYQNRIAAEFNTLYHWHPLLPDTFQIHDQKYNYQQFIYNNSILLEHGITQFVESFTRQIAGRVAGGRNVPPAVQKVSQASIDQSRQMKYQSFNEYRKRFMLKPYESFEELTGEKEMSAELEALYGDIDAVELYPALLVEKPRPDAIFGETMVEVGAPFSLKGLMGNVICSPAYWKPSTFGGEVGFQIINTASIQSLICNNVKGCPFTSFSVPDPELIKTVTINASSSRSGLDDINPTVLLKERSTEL
- assayDetails: Inhibition of human COX-2 at 17.5 uM using arachidonic acid as substrate by colorimetric analysis
Respond with true for inhibition values of 70% and above, false for values below.

>>> qualitativelabel("C=C(C)[C@@H]1CC[C@]2(C)[C@H](CC=C3[C@@H]4[C@@H](C)[C@H](C)CC[C@]4(C)CC[C@]32C)[C@@]1(C)CCCNCC(=O)OC")
"false"
>>> qualitativelabel("C=C(C)[C@@H]1CC[C@]2(C)CC[C@]3(C)[C@H](CC[C@@H]4[C@@](C)(CCCN5CCOCC5)[C@H](C(=C)C)CC[C@]43C)[C@@H]12")
"false"
>>> qualitativelabel("C=C(C)[C@@H]1CC[C@]2(C)[C@H](CC=C3[C@@H]4[C@@H](C)[C@H](C)CC[C@]4(C)CC[C@]32C)[C@@]1(C)CCCN1C[C@H](O)C[C@H]1C(=O)OC")
"false"
>>> qualitativelabel("C=C(C)[C@@H]1CC[C@]2(C)[C@H](CC=C3[C@@H]4[C@@H](C)[C@H](C)CC[C@]4(C)CC[C@]32C)[C@@]1(C)CCCO")
"false"
>>> qualitativelabel("C=C(C)[C@@H]1CC[C@]2(C)CC[C@]3(C)[C@H](CC[C@@H]4[C@@](C)(CCCO)[C@H](C(=C)C)CC[C@]43C)[C@@H]12")
"false"
>>> qualitativelabel("C=C(C)[C@@H]1CC[C@]2(C)[C@H](CC=C3[C@@H]4[C@@H](C)[C@H](C)CC[C@]4(C)CC[C@]32C)[C@@]1(C)CCCN1CCOCC1")
"true"

====

- assayDetails: Cytotoxicity against mouse RAW264.7 cells assessed as cell viability at 70 uM incubated for 24 hrs by MTS assay relative to control
- Assay type: toxicity, cell-based
- conditions: read-out: Activity
metricName: viability at 24 h, 70 µM (%)

>>> quantitativereadout("C=C(C)[C@@H]1CC[C@]2(C)[C@H](CC=C3[C@@H]4[C@@H](C)[C@H](C)CC[C@]4(C)CC[C@]32C)[C@@]1(C)CCCN1CCOCC1")
73.8
>>> quantitativereadout("C=C(C)[C@@H]1CC[C@]2(C)CC[C@]3(C)[C@H](CC[C@@H]4[C@@](C)(CCCN5C[C@H](O)C[C@H]5C(=O)OC)[C@H](C(=C)C)CC[C@]43C)[C@@H]12")
64.2
>>> quantitativereadout("C[C@H]1[C@H](C)CC[C@]2(C(=O)O)CC[C@]3(C)C(=CC[C@@H]4[C@@]5(C)CC[C@H](O)C(C)(C)[C@@H]5CC[C@]43C)[C@H]12 [URSOLIC ACID]")
13.9
